Item-by-item account of MIC
System: Citrobacter diversus
test details: MIC against Gram-negative bacteria: Citrobacter diversus
Type: cell-based
conditions used: C. diversus; 10 h cultivation at 37° C.; 5×10^5 CFU/mL
Description: 1. Gram-negative bacteria, such as E. coli BL21, Pseudomonas aeruginosa, Klebsiella pneumonia, Enterobacter cloacae, Aeromonas hydrophila, Citrobacter diversus, Moraxella catarrhalis, Proteus mirabilis, Proteus vulgaris, Serratia marcescens, etc were streaked on solid LB medium and cultured respectively. Then, typical clones were picked, inoculated into common liquid LB medium respectively, and cultured at 37° C. with shaking at 185 rpm until the McFarland specific turbidity was 0.5. […]
Your answer is read as µg/mL, so omit the unit and give the number.

[
  {
    "substance": "PRT443 (DIDECENTDACQHECKNTFGSYQCICPPGYQLTHNGKTCQ; listed as Homo sapiens)",
    "MIC / µg/mL": 25
  },
  {
    "substance": "PRT399 (DVDECRMLAHLCAHGECINSLGSFRCHCQAGYTPDATATTCL; listed as Homo sapiens)",
    "MIC / µg/mL": 12.5
  },
  {
    "substance": "PRT318 (DVDECEKNPCAGGECINNQGSYTCQCRAGYQSTLTRTECR; listed as Homo sapiens)",
    "MIC / µg/mL": 12.5
  },
  {
    "substance": "PRT440 (DVNECRQNVCRPDQHCKNTRGGYKCIDLCPNGMTKAENGTCI; listed as Homo sapiens)",
    "MIC / µg/mL": 50
  },
  {
    "substance": "PRT419 (DIDECALPTGGHICSYRCINIPGSFQCSCPSSGYRLAPNGRNCQ; listed as Homo sapiens)",
    "MIC / µg/mL": 25
  },
  {
    "substance": "PRT302 (DIDECVEEPEICALGTCSNTEGSFKCLCPEGFSLSSSGRRCQ; listed as Homo sapiens)",
    "MIC / µg/mL": 12.5
  },
  {
    "substance": "PRT431 (DIDECRTIPEACRGDMMCVNQNGGYLCIPRTNPVYRGPYSN; listed as Homo sapiens)",
    "MIC / µg/mL": 50
  },
  {
    "substance": "PRT433 (DIDECRYGYCQQLCANVPGSYSCTCNPGFTLNEDGRSCQ; listed as Homo sapiens)",
    "MIC / µg/mL": 50
  }
]

Read the next record carefully.
Request the reported MIC associated with PRT312 (DNNECTSDINLCGSKGICQNTPGSFTCECQRGFSLDQTGSSCE; listed as Homo sapiens)
50
